System: Rattus norvegicus
protocol_notes: Antidyslipidemic activity in Triton fed hyperlipidemic Charles Foster rat assessed as reduction in plasma total cholesterol at 100 mg/kg, po
Type: functional
Parameters: scale not given: the % may be the effect or the level left
observed_property: Activity (%)
One number for each entry, in %.

compound: CCOC(=O)C(C)Oc1ccc(NC(=O)COc2ccccc2C(C)CC)cc1 (stereo not given)
observed_property: Activity
recorded_number: 24
//
compound: CCOC(=O)C(CC)Oc1ccc(NC(=O)COc2ccccc2C(C)CC)cc1 (stereo not given)
observed_property: Activity
recorded_number: 10

Please report Activity for every entry that follows.
1. CCOC(=O)C(CC)Oc1ccc(NC(=O)COc2ccc(Cl)cc2Cl)cc1 (stereo not given)
2. CCOC(=O)C(C)Oc1ccc(NC(=O)COc2ccccc2Cl)cc1 (stereo not given)
3. CCOC(=O)C(C)Oc1ccc(NC(=O)CSc2ccc3ccccc3c2)cc1 (stereo not given)
4. CCOC(=O)C(C)(C)Oc1ccc(NC(=O)COc2ccc3ccccc3c2)cc1
5. CCOC(=O)C(C)(C)Oc1ccc(NC(=O)COc2ccccc2C(C)CC)cc1 (stereo not given)
6. CCOC(=O)C(C)(C)Oc1ccc(NC(=O)COc2ccc(Cl)cc2Cl)cc1

Output:
2
25
26
25
7
8

Please report Activity for every entry that follows.
1. CCOC(=O)C(CC)Oc1ccc(NC(=O)CSc2ccc3ccccc3c2)cc1 (stereo not given)
2. CCOC(=O)C(C)Oc1ccc(NC(=O)COc2ccc(Cl)cc2Cl)cc1 (stereo not given)

Output:
[6, 8]

###

Please provide measured Activity for the entries that follow.
Tested on: Rattus norvegicus
protocol_notes: Antidyslipidemic activity in Triton fed hyperlipidemic Charles Foster rat assessed as reduction in plasma total cholesterol at 100 mg/kg, po
Type: functional
Parameters: scale not given: the % may be the effect or the level left
Don't forget the unit after the value.

Please report Activity for every entry that follows.
1. Cc1ccc(C)c(OCCCC(C)(C)C(=O)O)c1
2. CCOC(=O)COc1ccc(NC(=O)COc2ccccc2Cl)cc1
3. CCOC(=O)CCCOc1ccc(NC(=O)COc2ccccc2Cl)cc1
4. CCOC(=O)C(CC)Oc1ccc(NC(=O)COc2ccc3ccccc3c2)cc1 (stereo unspecified)
5. CCOC(=O)CCCOc1ccc(NC(=O)COc2ccc3ccccc3c2)cc1

Output:
1. 31%
2. 6%
3. 9%
4. 12%
5. 21%

Task: Find the recorded Activity belonging to CCOC(=O)CCCOc1ccc(NC(=O)COc2ccc(Cl)cc2Cl)cc1 and report it.
Output: 9%

###

Please provide measured Activity for the entries that follow.
Species: Rattus norvegicus
protocol_notes: Increase in lipoprotein lipase activity in Triton fed hyperlipidemic Charles Foster rat plasma assessed as free fatty acids formation rate per ml of plasma relative to untreated Triton control
Type: functional
Parameters: concentration or dose not given beside the values
Numbers only, in %.

Below are worked cases with known answers.
molecule: CCOC(=O)C(C)Oc1ccc(NC(=O)COc2ccc3ccccc3c2)cc1 (stereo unspecified)
value_units: %
recorded_number: 24

molecule: CCOC(=O)C(C)Oc1ccc(NC(=O)COc2ccccc2Cl)cc1 (stereo unspecified)
value_units: %
recorded_number: 21

molecule: CCOC(=O)C(C)(C)Oc1ccc(NC(=O)COc2ccc3ccccc3c2)cc1
value_units: %
recorded_number: 22

molecule: CCOC(=O)C(C)Oc1ccc(NC(=O)CSc2ccc3ccccc3c2)cc1 (stereo unspecified)
value_units: %
recorded_number: 26

molecule: CCOC(=O)C(C)Oc1ccc(NC(=O)COc2ccccc2C(C)CC)cc1 (stereo unspecified)
value_units: %
recorded_number: 16

Task: Find the recorded Activity belonging to Cc1ccc(C)c(OCCCC(C)(C)C(=O)O)c1 and report it.
Output: 30

###

Please provide measured inhibition for the entries that follow.
protocol_notes: Antioxidant activity in microsomes assessed as inhibition of lipid peroxidation by measuring MDA level at 200 ug/ml by spectrophotometry based TBARS method
Assay type: functional
Numbers only, in %.

Below are worked cases with known answers.
molecule: CCOC(=O)C(C)Oc1ccc(NC(=O)COc2ccc3ccccc3c2)cc1 (stereo not given)
value_units: %
inhibition: 22

molecule: CCOC(=O)C(C)(C)Oc1ccc(NC(=O)COc2ccc3ccccc3c2)cc1
value_units: %
inhibition: 22

molecule: CCOC(=O)C(C)Oc1ccc(NC(=O)COc2ccccc2Cl)cc1 (stereo not given)
value_units: %
inhibition: 26

molecule: Cc1c(C)c2c(c(C)c1O)CC[C@@](C)(CCC[C@H](C)CCC[C@H](C)CCCC(C)C)O2
value_units: %
inhibition: 49

Next:
Task: Find the recorded inhibition belonging to CCOC(=O)C(C)Oc1ccc(NC(=O)COc2ccccc2C(C)CC)cc1 (stereo not given) and report it.
Output: 25
